These data points were gathered from PubChem BioAssay (NCI).

Please respond with reported TGI for every item in the list.
Test system: DU-145 prostate
EXPERIMENTAL DETAILS: NCI tumour cell line growth inhibition, 48 h

Study these solved cases before continuing.
OCc1cc2c(ccc3sc4ccc5sc6ccc7ncccc7c6c5c4c32)s1
33.6 µM
CC[C@@H]1ON(C)[C@H]2CN(C)C(=O)[C@@H]12
> 100 µM
CCc1c(CN)c(CC)c(CNC2=NCCN2)c(CC)c1CNC1=NCCN1
> 100 µM
O=C1C(C(O)(C(F)(F)Cl)C(F)(F)Cl)CCCC1C(O)(C(F)(F)Cl)C(F)(F)Cl (stereo not given)
> 10 µM
Cc1cc(=O)[nH]c(N/N=C/c2cc(Br)ccc2O)n1
> 100 µM
CSc1ccc(-c2ccccc(=O)c2O)cc1
> 100 µM
C=C1CCCC2[C@](C)(CC3=C(Cl)C(=O)C=C(OC)C3=O)C(C)CC[C@]12C (stereo not given in full)
15.2 µM
CN(C)c1ccc(/C=C/c2ccnc3c(O)cccc23)cc1
> 100 µM
C1=NCCN2CCN(CCN=Cc3ccccc3OCc3cccc(n3)COc3ccccc31)CC2
35.7 µM
O=P1(Oc2ccccc2)N=P(c2ccccc2)(c2ccccc2)C=C(c2ccc(Cl)cc2)N1 (stereo not given)
26.9 µM

// each compound listed below needs its TGI
1. c1cnn(C23C4C5C6C4C2C6C53)c1 (stereo not given)
2. O=C(O)/C=C/C(=O)N1Cc2cc3ccccc3nc2C1
3. CC(C)N1CC2CN(Cc3ccccc3)CC(C1)C2=O
4. C(/C=C/c1ccccc1)=Nc1ccc2c(c1)Cc1ccccc1-2

// result
1. > 100 µM
2. > 100 µM
3. > 100 µM
4. > 100 µM

Below are some compounds; for each one, tell me its TGI.
1. OC(c1cc(-c2cccc(Cl)c2)nc2ccccc12)C1CCCCN1 (stereo not given)
2. CC(=O)OC(CN1CCN(c2ccccn2)CC1)Cn1sc2nc(C)cc(C)c2c1=O (stereo not given)
3. O=C1c2cccnc2S(=O)(=O)N1c1ccc(Oc2ccccc2)cc1
4. CCN(CC)CCNc1ccc(C)c2sc3cc(Cl)ccc3c(=O)c12
5. COc1ccc(OC)c(CSc2ccc(OC)c(OC)c2)c1

// result
1: 3.15 µM; 2: 33.9 µM; 3: > 100 µM; 4: 3.17 µM; 5: > 100 µM

// query Fill in the blank: the reported TGI of COc1ccc(CC2C3=C(CCN2C(=O)C2CCC2)CC2(CC3)OCCO2)cc1O (stereo not given) is ____.
// result 61.6 µM
